Reference source: PubChem BioAssay (NCI)

# Test system: CCRF-CEM leukemia
# Test Method Notes: NCI-60 one-dose screen, 48 h (100 = growth as untreated, 0 = no growth, -100 = all killed)
# Applied Conditions: 10 µM unless noted
The panel holds about 83,000 compounds, 20% with a hit somewhere; the sample as a whole holds those more often.
Note to self: growth under 90% means rule met, ties and anything higher get rule not met.

Consider the following illustrative entries.
- CC(C)(C)c1ccc(OC(=O)Nc2ccccc2)cc1: rule met
- CCN(CC)Cc1cc(Nc2ccnc3ccc(OC)cc23)ccc1O: rule met
- COc1ccc(-c2nc(SCCC(C)C)nc(Nc3ccc(C(=O)O)cc3)c2C#N)cc1: rule met
- COc1ccc(C(=O)OC2C(OC3C(O)COC(O[C@H]4C[C@H]5[C@@H]6CC=C7C[C@@H](O)CC[C@]7(C)[C@H]6CC[C@]5(C)[C@H]4[C@H](C)C(=O)CCC(C)C)C3OC(C)=O)OCC(O)C2O)cc1 (some centres undefined): rule met

Task item: Does the reported growth of C=CCN1C(=O)/C(=c2\sc3n(c2=O)C2C(NN=3)N(CC)C(=O)N2CC)c2ccccc21 (centres undefined) stay below 90%?
Reply: rule met

Task item: Does the reported growth of Cc1c(C(N)=O)sc2ncn(CC(=O)NN=C3CCCCC3)c(=O)c12 stay below 90%?
Reply: rule not met

Task item: Does the reported growth of Cc1ccc(C)c(NC(=O)c2sc3c(=O)[nH]cnc3c2C)c1 stay below 90%?
Reply: rule met

Task item: Does the reported growth of CCN(CC)CC(=O)Nc1c(C)ccc(N)c1C stay below 90%?
Reply: rule not met

Task item: Does the reported growth of COC(=O)C(Br)(C(=O)OC)C(Br)C(Br)C(Br)c1ccccc1 (centres undefined) stay below 90%?
Reply: rule met

Task item: Does the reported growth of O=c1c2cc(Cl)ccc2oc2ccc(OCCCCCN3CCCCC3)cc12 stay below 90%?
Reply: rule met

Task item: Does the reported growth of O=C1Nc2ccc(Cl)cc2/C1=C\c1c(-c2ccc(F)cc2)nc2ccccn12 stay below 90%?
Reply: rule met

Task item: Does the reported growth of O=C(c1ccccc1)C1OC1C(=O)c1ccccc1 (centres undefined) stay below 90%?
Reply: rule met

Task item: Does the reported growth of CSc1ccc(/C=C2\C=C(CC(=O)NCc3ccc(C(=O)c4ccccc4)cc3)c3cc(F)ccc32)cc1 stay below 90%?
Reply: rule met

Task item: Does the reported growth of COc1cc(NC(=O)CSc2nc3ccc(Cl)cc3c(=O)n2Cc2ccccc2)cc(OC)c1OC stay below 90%?
Reply: rule not met

Task item: Does the reported growth of CC(C)CCSc1nc(Nc2ccccc2)c(C#N)c(-c2ccc(F)cc2)n1 stay below 90%?
Reply: rule met

###

# System: CCRF-CEM leukemia
# Test Method Notes: NCI-60 one-dose screen, 48 h (100 = growth as untreated, 0 = no growth, -100 = all killed)
# Applied Conditions: 10 µM unless noted
Compounds without any hit were thinned out: in the full panel of roughly 83,000, 20% have a hit. Active and inactive are the calls of the source. How the source made its calls: active means growth percent below 10; inactive means the rest.
Measurement Kind: growth

Task item: I have this compound here, Cc1c2c(cc3c1[nH]c1ccccc13)C=NCC2 , and I need its recorded growth.
Reply: 75.9% (inactive)

Task item: I have this compound here, Cc1ccc(NC(=O)c2cc(NCc3cc(O)ccc3O)ccc2O)cc1 , and I need its recorded growth.
Reply: 26.4% (inactive)

Task item: I have this compound here, COC1(OC)C2(Cl)CCC1(Cl)C(Cl)=C2Cl , and I need its recorded growth.
Reply: 103% (inactive)

Task item: I have this compound here, Oc1ccccc1-c1nnc(COc2ccc(Cl)cc2Cl)o1 , and I need its recorded growth.
Reply: 15.5% (inactive)

###

# Tested on: MDA-MB-435 melanoma
# Test Method Notes: NCI-60 one-dose screen, 48 h (100 = growth as untreated, 0 = no growth, -100 = all killed)
# Applied Conditions: 10 µM unless noted
About 83,000 compounds went through this panel and 20% of them were active in at least one assay; those are over-represented in the sample as a whole.
Measurement Kind: growth (%)
Write the answer as a number in %, unit excluded.

• CCC(=O)OCc1ccc(OC)cc1 = 112
• Clc1ccc(-c2nc(-c3cccs3)no2)cc1 = 107
• c1coc(CNc2c3ccccc3nc3ccccc23)c1 = 87.6
• COc1cc2ncnc(Nc3ccc(S(=O)(=O)Nc4nccs4)cc3)c2cc1OCCCN1CCOCC1 = 101

Task item: Lab note: need growth for COc1ccc(C(=O)OC2C(OC3C(O)COC(O[C@H]4C[C@H]5[C@@H]6CC=C7C[C@@H](O)CC[C@]7(C)[C@H]6CC[C@]5(C)[C@H]4[C@H](C)C(=O)CCC(C)C)C3OC(N)=O)OCC(O)C2O)cc1 (stereo not given in full) on MDA-MB-435 melanoma, anyone have it?
Reply: -63

Task item: Lab note: need growth for COc1ccc(-c2nc(SCCC(C)C)nc(Nc3ccc(C(=O)O)cc3)c2C#N)cc1 on MDA-MB-435 melanoma, anyone have it?
Reply: 99.3

Task item: Lab note: need growth for COc1ccc(CC2c3cc(OC)c(OC)cc3CC[N+]2(C)CCC(=O)OCCCCCOC(=O)CC[N+]2(C)CCc3cc(OC)c(OC)cc3C2Cc2ccc(OC)c(OC)c2)cc1OC (stereo not given) on MDA-MB-435 melanoma, anyone have it?
Reply: 96.7

Task item: Lab note: need growth for CCOC(=O)c1cnc(SCC)nc1SC#N on MDA-MB-435 melanoma, anyone have it?
Reply: 77.5

Task item: Lab note: need growth for O=C(CCl)N1c2ccccc2Oc2ccc3ccccc3c21 on MDA-MB-435 melanoma, anyone have it?
Reply: -22.4

Task item: Lab note: need growth for CCN1C(=O)N(CC)C2C1NN=c1s/c(=C\c3ccco3)c(=O)n12 (stereo not given) on MDA-MB-435 melanoma, anyone have it?
Reply: -56.9

###

# System: 786-0 renal
# Test Method Notes: NCI-60 one-dose screen, 48 h (100 = growth as untreated, 0 = no growth, -100 = all killed)
# Applied Conditions: 10 µM unless noted
About 83,000 compounds went through this panel and 20% of them were active in at least one assay; those are over-represented in the sample as a whole.
Hi, to clarify the labels: met covers growth from 60% upward, not met covers anything below 60%.

Consider the following illustrative entries.
• COC(=O)c1ccc2c(c1)nc(-c1cc3ccccc3[nH]c1=O)n2-c1cc(C(C)(C)C)[nH]n1 = not met
• COc1ccc(C2=NNC(c3ccc(Oc4nc5c(c(=O)n(C)c(=O)n5C)n4C)c(OC)c3)C2)cc1 (stereo not given) = met
• COc1cnc2c(c1)C(=O)c1c-2n(CCCN2CCNCC2)c(=O)c2cc(Cl)ccc12 = not met
• CCCCCCCC/C=C/CCCCCCCC1=NC(C)(C)CN1c1ccccc1 = met
• CCCCOc1nc2ccc(C)cc2cc1/C=C/C(=O)/C=C(O)/C=C/c1cc2cc(C)ccc2nc1OCCCC = met

Task item: growth >= 60% for COc1nccc2c(Sc3ccccc3)nc(N)nc12 ?
Reply: met

Task item: growth >= 60% for COc1cc(NCCC2CCCCN2)c2ncccc2c1OC (stereo not given) ?
Reply: met

Task item: growth >= 60% for C=CCOC(=O)C1=C(C)NC2=C(C(=O)CC(C)(C)C2)C1c1ccc(OC)cc1 (stereo not given) ?
Reply: met

Task item: growth >= 60% for CN1CCCN(CCNc2nccc(-c3c(-c4cccc(O)c4)nc4sccn34)n2)S1(=O)=O ?
Reply: not met

###

# System: MDA-MB-231 breast
# Test Method Notes: NCI-60 one-dose screen, 48 h
# Applied Conditions: 10 µM unless noted
The panel holds about 83,000 compounds, 20% with a hit somewhere; the sample as a whole holds those more often. Activity calls are given as the source filed them. Rule for the calls: active = growth percent below 10; inactive = the rest.
Bench note: report the call from active, inactive

• CCc1c(C)c2ccc(O)c(-c3cc(-c4ccccc4)c(C#N)c(=O)[nH]3)c2oc1=O = inactive

Task item: Hey, what did the test say about COc1ccc(-n2c(COc3ccc(F)cc3)n[nH]c2=S)cc1 ?
Reply: inactive

###

# System: MDA-MB-231 breast
# Test Method Notes: NCI-60 one-dose screen, 48 h (100 = growth as untreated, 0 = no growth, -100 = all killed)
# Applied Conditions: 10 µM unless noted
Compounds without any hit were thinned out: in the full panel of roughly 83,000, 20% have a hit.
Parameter growth: see the listing below.
Write the answer as a number in %, unit excluded.

Study these solved cases before continuing.
- O=C(NCCN1CCCCC1)n1cc(-c2ccncc2)c(-c2ccc(Cl)c(O)c2)n1: 74.5
- CC(=O)c1ccc(Br)c([N+](=O)[O-])c1: 117
- O/N=C/c1ccncc1: 118
- CC(=O)C1CCC2C3CC(C)=C4CC(O)CCC4(C)C3CCC12C (stereo not drawn): 101
- Nc1c(C(=O)C[C@@H](N)CO)ccc2c1C(=O)CCO2: 61

Next item in the queue.
Task item: I have this molecule here, CC(NC(=O)c1ccccc1)C(=O)Nc1ccccc1 (stereo not drawn) , and I need its recorded growth.
Reply: 115
